Recorded measurements of IC50, one per entry
target-or-system: Acetylcholinesterase (Mus musculus, UniProt P21836)
Sequence (P21836 whole entry): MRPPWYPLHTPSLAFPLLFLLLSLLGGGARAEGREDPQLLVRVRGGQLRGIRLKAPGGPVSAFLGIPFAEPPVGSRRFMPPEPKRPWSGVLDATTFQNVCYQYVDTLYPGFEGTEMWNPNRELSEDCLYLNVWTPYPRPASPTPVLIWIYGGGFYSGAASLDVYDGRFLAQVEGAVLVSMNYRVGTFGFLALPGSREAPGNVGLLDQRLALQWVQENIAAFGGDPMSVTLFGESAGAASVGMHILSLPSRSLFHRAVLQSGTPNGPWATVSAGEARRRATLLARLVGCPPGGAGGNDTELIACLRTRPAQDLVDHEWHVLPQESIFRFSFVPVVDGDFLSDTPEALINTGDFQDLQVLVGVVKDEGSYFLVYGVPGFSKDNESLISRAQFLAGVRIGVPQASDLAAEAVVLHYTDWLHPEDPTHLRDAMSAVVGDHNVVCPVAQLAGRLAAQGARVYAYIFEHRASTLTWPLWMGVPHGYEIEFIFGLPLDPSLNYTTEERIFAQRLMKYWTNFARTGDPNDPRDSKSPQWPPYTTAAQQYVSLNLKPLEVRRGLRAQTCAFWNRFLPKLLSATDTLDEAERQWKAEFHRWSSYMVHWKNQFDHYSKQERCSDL
Express your answer in nM, writing the number without its unit.

Value wanted: IC50 (Acetylcholinesterase (Mus musculus, UniProt P21836)) of entry CCCCN1CCC(CCC(=O)c2ccc(N3CCN(CCCCc4c[nH]c5ccc(C#N)cc45)CC3)cc2)CC1
124

Value wanted: IC50 (Acetylcholinesterase (Mus musculus, UniProt P21836)) of entry N#Cc1ccc2[nH]cc(CCCCN3CCN(c4cccc(C(=O)CCC5CCN(Cc6ccccc6)CC5)c4)CC3)c2c1
37.9

Value wanted: IC50 (Acetylcholinesterase (Mus musculus, UniProt P21836)) of entry N#Cc1ccc2[nH]cc(CCCCN3CCN(c4ccc(C(=O)CCC5CCN(CC6CCCCC6)CC5)cc4)CC3)c2c1
76.5

Value wanted: IC50 (Acetylcholinesterase (Mus musculus, UniProt P21836)) of entry N#Cc1ccc2[nH]cc(CCCCN3CCN(c4ccc(C(=O)CCC5CCN(Cc6cccnc6)CC5)cc4)CC3)c2c1
7.98

Value wanted: IC50 (Acetylcholinesterase (Mus musculus, UniProt P21836)) of entry C=CCN1CCC(CCC(=O)c2ccc(N3CCN(CCCCc4c[nH]c5ccc(C#N)cc45)CC3)cc2)CC1
267

Value wanted: IC50 (Acetylcholinesterase (Mus musculus, UniProt P21836)) of entry N#Cc1ccc2[nH]cc(CCN3CCN(c4ccc(C(=O)CCC5CCN(Cc6ccccc6)CC5)cc4)CC3)c2c1
5.04

Value wanted: IC50 (Acetylcholinesterase (Mus musculus, UniProt P21836)) of entry N#Cc1ccc2[nH]cc(CCCCN3CCN(c4ccc(C(=O)CCC5CCN(Cc6cccc(Cl)c6)CC5)cc4)CC3)c2c1
27

Value wanted: IC50 (Acetylcholinesterase (Mus musculus, UniProt P21836)) of entry O=C(CCC1CCN(Cc2ccccc2)CC1)c1ccc(N2CCN(CCCCc3c[nH]c4ccccc34)CC2)cc1
1.51

====

target-or-system: Acetylcholinesterase (Mus musculus)
observed-property: pIC50
The meaning of pIC50 here: minus log10 of the concentration in molar units.

1) O=C(CCC1CCN(Cc2ccccc2)CC1)c1ccc(N2CCN(CCCCc3c[nH]c4ccc(Cl)cc34)CC2)cc1: 8.45
2) C#CCN1CCC(CCC(=O)c2ccc(N3CCN(CCCCc4c[nH]c5ccc(C#N)cc45)CC3)cc2)CC1: 5.94

# context switch: different compound, same pIC50
I am curious: what pIC50 value has been reported for O=C(CCC1CCN(Cc2ccccc2)CC1)c1ccc(N2CCN(CCCCc3c[nH]c4ccc(F)cc34)CC2)cc1 ?
8.61
